# ASSAY_TEXT: qHTS of pediatric cancer cell lines to identify multiple opportunities for drug repurposing: Primary screen for OHS-50 cells (AID 1347103); note: nearly all actives have a fitted effect of over 40% in size; note: potency is the fitted concentration of half-maximal effect
# TEST_CONDITIONS: OHS-50 osteosarcoma viability, CellTiter-Glo luminescence, 48 h; series mostly up to 57.3 µM
# Protocol: Drug repurposing or repositioning has been offered as a strategy for drug development in oncology programs. […] [1] Shen, M et al. Quantitative high-throughput phenotypic screening of pediatric cancer cell lines identifies multiple opportunities for drug repurposing. […] Cells were assayed in growth media at a density of 500-1,000 cells/well. […] After a 15 min incubation at room temperature, samples were analyzed for luminescence intensity using a ViewLux High-throughput CCD imager equipped with clear filters.
Records with an inconclusive call do not appear. The source made the active and inactive calls. Calls come from the whole dose curve; as a rule, active = well fitted cell-killing curve with a large enough effect; inconclusive = small, poorly fitted or top-dose-only effect; inactive = no such curve, though single readings can be large or run the other way.

# MOLECULE, Potency
rows = [
    ("CCCCCCCCCCCCCCCCCCOCC(O)CO (stereo not drawn)", "inactive"),
    ("CC1CC(OC(=O)C(O)c2ccccc2)CC(C)(C)N1C (stereo not drawn)", "inactive"),
    ("CC(C)c1c(C(=O)Nc2ccccc2)c(-c2ccccc2)c(-c2ccc(F)cc2)n1CC[C@@H](O)C[C@@H](O)CC(=O)O", "15.5 µM (active)"),
    ("COc1ccc2cc1Oc1cc3c(cc1OC)CC[N+](C)(C)[C@H]3Cc1ccc(cc1)Oc1c(OC)c(OC)cc3c1[C@@H](C2)[N+](C)(C)CC3", "inactive"),
    ("CCCOC(=O)c1ccccc1", "inactive"),
    ("CC1=C(CC(=O)O)c2cc(F)ccc2/C1=C\\c1ccc(S(C)(=O)=O)cc1", "inactive"),
    ("CN(C)CCOC(C)(c1ccccc1)c1ccccn1 (stereo not drawn)", "inactive"),
    ("CC1=C(/C=C/C(C)=C/C=C/C(C)=C/C(=O)O)C(C)(C)CCC1", "0.0309 µM (active)"),
]
